The values you see were collected from the domain aggregation screens of Martell et al. (2025).

assay: soluble fraction after stress (log2 fold change); higher = more stays soluble; pooled small domains, quantitative proteomics; conditions: stress: 75 degC;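 further: 20 min heating vs room temperature control held 20 min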
measured.metric: soluble fraction (log2)
# output: bare number, no unit

# seq, measured.metric, result.value
rows = [
    ("HMSLRGEKTYDEAHQKLIKSAVELFKNPLVSPEKITVSQIAKHAGVSVATAYNHFPENKLDIYGSIF", "soluble fraction (log2)", -0.203),
]

Input "HMLYDNQLPDWAGQMVKNHGLTISPKALVILVDHIGNDLSRIENEIEKLMLNLGTRKSITEDDVEN" , output reported soluble fraction (log2). -1.61

Input "HMDINLGIGPLVKKYRTIKGYSIRELARNINVTASMLSQIERDIVNPSINTLKAISVELGVPMYKFFM" , output reported soluble fraction (log2). -2.38
